- Species: Gallus gallus
- experiment_notes: In Vitro neurotrophic effect was measured in cultured chick DRG sensory neurons.
- Format: functional
- setup_conditions: read-out: ED50 (the source's name)
metric_name: EC50
Respond with the figure and its unit, in that order.

Record excerpt, results attached:
[
  {
    "molecule": "CCC(C)(C)C(=O)C(=O)N1CCCC1C(=O)OCCCc1cc(OC)ccc1OC (stereo not drawn)",
    "EC50": "2 nM"
  },
  {
    "molecule": "COc1cc(C(=O)C(=O)N2CCCCC2C(=O)OC(CCCc2ccccc2)CCCc2ccccn2)cc(OC)c1OC (stereo not drawn)",
    "EC50": "0.05 nM"
  }
]

# EC50 lookup, item O=C(C(=O)N1CCCCC1C(=O)OCCCc1cccnc1)c1ccccc1 (stereo not drawn)
0.8 nM

---

- System: Mus musculus
- experiment_notes: Compound was evaluated for the recovery of Striatal TH immunostaining in MPTP-treated mice by concurrent treatment after 40 mg/kg sc administration.
- Type: functional, organism-based
- Parameters: dose 40 mg/kg
- setup_conditions: at 40 mg/kg
Reported Recovery values follow for various molecules
Expressed in %, but write only the number.

Record excerpt, results attached:
[
  {
    "molecule": "CC(C)(C)C(=O)C(=O)N1CCCCC1C(=O)OCCCc1ccccc1 (stereo not given)",
    "experimental_target": "Mus musculus",
    "Recovery / %": 32.4
  },
  {
    "molecule": "CCC(C)(C)C(=O)C(=O)N1CCCCC1C(=O)OC(CCc1ccccc1)CCc1ccccc1 (stereo not given)",
    "experimental_target": "Mus musculus",
    "Recovery / %": 71.6
  },
  {
    "molecule": "COc1ccc(CCCCOC(=O)C2CCCCN2C(=O)C(=O)C(C)(C)C)cc1 (stereo not given)",
    "experimental_target": "Mus musculus",
    "Recovery / %": 58.9
  },
  {
    "molecule": "CCC(C)(C)C(=O)C(=O)N1CCCC1C(=O)OCCCc1cccnc1 (stereo not given)",
    "experimental_target": "Mus musculus",
    "Recovery / %": 67.5
  }
]

# next molecule below
# Recovery lookup, item CC(C)(C)C(=O)C(=O)N1CCCCC1C(=O)OC(CCCc1ccccc1)CCCc1ccccc1 (stereo not given)
43.8

---

Reported Ki values follow for various compounds
- experimental_target: Peptidyl-prolyl cis-trans isomerase FKBP1A (Homo sapiens)
- experiment_notes: Compound was tested for its ability to inhibit FK506 binding protein 12 rotamase activity
Expressed in nM, but write only the number.

Record excerpt, results attached:
[
  {
    "compound": "COC(=O)C(=O)N1CCCCC1C(=O)OCc1ccccc1 (centres undefined)",
    "units_of_measure": "nM",
    "Ki": 8000
  },
  {
    "compound": "CCC(C)(C)C(=O)C(=O)N1CCCC1C(=O)OCCCc1cccnc1 (centres undefined)",
    "units_of_measure": "nM",
    "Ki": 7.5
  },
  {
    "compound": "CCC(C)(C)C(=O)C(=O)N1CCCCC1C(=O)OCCCc1ccccc1 (centres undefined)",
    "units_of_measure": "nM",
    "Ki": 250
  }
]

# next compound below
# Ki lookup, item O=C(OC(CCCc1ccccc1)Cc1ccccc1)C1CCCCN1S(=O)(=O)Cc1ccccc1 (centres undefined)
107

---

- experimental_target: Peptidyl-prolyl cis-trans isomerase FKBP1A (Homo sapiens)
metric_name: pKi
Lab note: report pKi as minus log10 of the concentration in molar units, number only.

Hi! What's the reported pKi for CCC(C)(C)C(=O)C(=O)N1CCCC1C(=O)OCCc1cc(OC)c(OC)c(OC)c1 (stereo not given) on Peptidyl-prolyl cis-trans isomerase FKBP1A (Homo sapiens)?
6.92

Hi! What's the reported pKi for CC(C)(C)C(=O)C(=O)N1CCCCC1C(=O)OC1C2CC3CC(C2)CC1C3 (stereo not given) on Peptidyl-prolyl cis-trans isomerase FKBP1A (Homo sapiens)?
7.11

Hi! What's the reported pKi for COc1ccc(CCCCOC(=O)C2CCCCN2C(=O)C(=O)C2CCCCC2)cc1 (stereo not given) on Peptidyl-prolyl cis-trans isomerase FKBP1A (Homo sapiens)?
6.99

---

- Species on record: Gallus gallus
- experiment_notes: In Vitro neurotrophic effect was measured in cultured chick DRG sensory neurons.
- Format: functional
- setup_conditions: read-out: ED50 (the source's name)
Reported EC50 values follow for various compounds

Record excerpt, results attached:
[
  {
    "compound": "COC(=O)C1CCCCN1C(=O)C(=O)c1ccccc1 (stereo not given)",
    "EC50": "> 10000 nM"
  },
  {
    "compound": "O=C(C(=O)N1CCCCC1C(=O)OC(CCCc1ccccc1)CCCc1ccccn1)c1ccccc1 (stereo not given)",
    "EC50": "0.063 nM"
  },
  {
    "compound": "CCC(C)(C)C(=O)C(=O)N1CCCC1C(=O)OC/C=C/c1cc(OC)ccc1OC (stereo not given)",
    "EC50": "0.8 nM"
  }
]

# EC50 lookup, item COC(=O)C(=O)N1CCCCC1C(=O)OCc1ccccc1 (stereo not given)
> 10000 nM

# EC50 lookup, item COC(=O)C(=O)N1CCCCC1C(=O)OCCCC1CCCC1 (stereo not given)
> 10000 nM

# EC50 lookup, item CCOC(=O)C1CCCCN1C(=O)C(C)=O (stereo not given)
> 10000 nM

# EC50 lookup, item CCC(C)(C)C(=O)C(=O)N1CCCC1C(=O)OCCCc1cccnc1 (stereo not given)
0.05 nM

# EC50 lookup, item COC(=O)C(=O)N1CCCCC1C(=O)OCCCC1CCCCC1 (stereo not given)
> 10000 nM

# EC50 lookup, item C=CC[C@@H]1/C=C(\C)CC(C)C[C@H](OC)[C@H]2O[C@@](O)(C(=O)C(=O)N3CCCC[C@H]3C(=O)O[C@H](/C(C)=C/[C@@H]3CC[C@@H](O)[C@H](OC)C3)[C@H](C)[C@@H](O)CC1=O)[C@H](C)C[C@@H]2OC (single isomer, unassigned) [TACROLIMUS ANHYDROUS]
0.5 nM

# EC50 lookup, item COC(=O)C(=O)N1CCCCC1C(=O)OCCCCC1CCCCC1 (stereo not given)
> 10000 nM

---

- experimental_target: Peptidyl-prolyl cis-trans isomerase FKBP1A (Homo sapiens, UniProt P62942)
- Sequence (P62942 whole entry): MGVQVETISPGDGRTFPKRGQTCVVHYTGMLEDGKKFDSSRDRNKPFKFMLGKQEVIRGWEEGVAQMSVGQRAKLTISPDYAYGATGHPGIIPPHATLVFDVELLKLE
- experiment_notes: Compound was tested for its ability to inhibit FK506 binding protein 12 rotamase activity
metric_name: pKi
Lab note: report pKi as minus log10 of the concentration in molar units, number only.

[
  {
    "compound": "CCC(C)(C)C(=O)C(=O)N1CCCC1C(=O)OCCCc1ccc2c(c1)OCO2 (stereo not given)",
    "measurement": 6.77
  },
  {
    "compound": "CCC(C)(C)C(=O)C(=O)N1CCCC1C(=O)OCCCc1ccccc1 (stereo not given)",
    "measurement": 7.38
  },
  {
    "compound": "CCC(C)CNC(=O)N1CCCCC1C(=O)OCCCc1cccnc1 (stereo not given)",
    "measurement": 7.15
  }
]

# next compound below
Hi! What's the reported pKi for CC[C@@H]1/C=C(/C)[C@@H](O)[C@@H](C)C[C@H](OC)[C@H]2O[C@@](O)(C(=O)C(=O)N3CCCC[C@H]3C(=O)O[C@H](/C(C)=C/[C@@H]3CC[C@@H](O)[C@H](OC)C3)[C@H](C)[C@@H](O)CC1=O)[C@H](C)C[C@@H]2OC on Peptidyl-prolyl cis-trans isomerase FKBP1A (Homo sapiens, UniProt P62942)?
9.15
